These data points were gathered from patent US20150099721A1.

- System: SLC34A2-ROS expressing HCC78 NSCLC cells
- test_description: Cell viability (Cell Titer-Glo) in HCC78 cells
- Assay type: cell-based, human
- assay_conditions: Homo sapiens, 72 hr exposure (FIG. 1A), read-out: IC50, loss of HCC78 cell viability
parameter: IC50 (nM)
// note: answer is a bare numeric in nM

// query Give the reported IC50 for C[C@@H](Oc1cc(-c2cnn(C3CCNCC3)c2)cnc1N)c1c(Cl)ccc(F)c1Cl [crizotinib, reference compound] (system: SLC34A2-ROS expressing HCC78 NSCLC cells).
// result 1040

// query Give the reported IC50 for CC(C)c1cc(-c2nnc(O)n2-c2ccc3c(ccn3C)c2)c(O)cc1O [ganetespib] (system: SLC34A2-ROS expressing HCC78 NSCLC cells).
// result 17
